experiment: osmotic lysis modulators in infected erythrocytes, primary screen, PSAC antagonist project, cell-based, P. falciparum Indochina, OD700, 3 h (AID 1156); conditions: higher = more signal, called active from +8 up or from −8 down
The source made the active and inactive calls.
Listed below: z-score values for each entry.

1) [N-]=[N+]=NCc1ccccc1[C@@H]1OC(c2ccc(OCCCO)cc2)=N[C@]1(CCS(=O)(=O)c1ccccc1)C(=O)NCc1ccccc1 ... 1.75 (inactive)

INPUT: What z-score value was documented for this compound, CC(C)N1C(=O)c2ccccc2[C@](C)(C(=O)NCc2ccccc2)[C@@H]1c1ccc(CO)cc1 ?
OUTPUT: 0.24 (inactive)

INPUT: Would you mind telling me what z-score value was observed for CCOC(=O)C1=CCC(c2ccc(C)cc2)N(S(=O)(=O)c2ccc(C)cc2)C1 (stereo not given) ?
OUTPUT: -0.628 (inactive)
